Reported IC50 values for a set of binders
Molecular target: T1, TCE-22 (anti-CD3 scFv W112A; anti-TROP2 wt)
T1 construct: scFv on the Fab heavy chain; also called TCE-22 (W112A)
Assay: competition ELISA, TCE on captured CD3
Where no end group is shown, it is not given here.
Experimental Endpoint: IC50 (µM)

Binder: VYCGPEFDESVGCM (cysteine pairing not given here; also: biotinylated, site not given here, mask peptide for the CD3 scFv) [Peptide-67]
Reading Unit: µM
Observed: 38.5
--
Binder: YLCGPDGDETLACY (cysteine pairing not given here; also: biotinylated, site not given here, mask peptide for the CD3 scFv) [Peptide-70]
Reading Unit: µM
Observed: 0.47
--
Binder: SECLVDLQSDPCYW (cysteine pairing not given here; also: biotinylated, site not given here, mask peptide for the CD3 scFv) [Peptide-69]
Reading Unit: µM
Observed: 56.8
